Provenance of the data: PubChem BioAssay (NCI)

assay: NCI Yeast Anticancer Drug Screen. Data for the mlh1 rad18 strain (AID 175); conditions: S. cerevisiae mlh1 rad18 strain growth inhibition; at 50.0 µM (retest, dose inferred, filed as 5.0); hits give high values
Compounds without any hit were thinned out: in the full panel of roughly 79,000, 15% have a hit.
Given measured growth inhibition, output Condition met if it is greater than or equal to 90% and Condition not met if not.

Solved entries (count: 5):
[[record]]
molecule = "COC(=O)Oc1nn(C(=O)OC)c(=O)c2ccccc12"
answer_label = "Condition not met"

[[record]]
molecule = "O=C1C=C(Br)C(=O)C12CCc1ccccc12 (stereo unspecified)"
answer_label = "Condition met"

[[record]]
molecule = "Cc1c2cnccc2c(C)c2c1c1ccccc1n2CCCN"
answer_label = "Condition not met"

[[record]]
molecule = "O=C(O/N=C(/Cc1ccccc1)c1ccccc1)c1ccccc1"
answer_label = "Condition not met"

[[record]]
molecule = "NC1OC(COC(=O)c2ccccc2)C(O)C(OC(=O)c2ccccc2)C1OC(=O)c1ccccc1 (stereo unspecified)"
answer_label = "Condition met"


Query :: Check if growth inhibition >= 90% (inclusive). Item: Cc1noc(NS(=O)(=O)c2ccc(NCc3c4ccccc4nc4cc(Cl)ccc34)cc2)c1C
Result :: Condition not met

Query :: Check if growth inhibition >= 90% (inclusive). Item: O=C(/C=C/c1ccc(Cl)c(Cl)c1)CCN1CCN(CCC(=O)/C=C/c2ccc(Cl)c(Cl)c2)CC1
Result :: Condition met

Query :: Check if growth inhibition >= 90% (inclusive). Item: Cn1cccc1C(/C=C/c1ccccc1[N+](=O)[O-])c1cccn1C
Result :: Condition not met

Query :: Check if growth inhibition >= 90% (inclusive). Item: CCOC(=O)N1CCN(C(=S)N/N=C(\C)c2ncccn2)CC1
Result :: Condition met

Query :: Check if growth inhibition >= 90% (inclusive). Item: CCCCNc1ccc(C(=O)OC2CCN(C)CC2)c(Cl)c1
Result :: Condition met

Query :: Check if growth inhibition >= 90% (inclusive). Item: C=Cc1cc(=O)oc2cc(OC)ccc12
Result :: Condition met
